# Experiment: Ex vivo biodistribution of 68Ga-labeled tracers in PC-3 tumor-bearing mice
# Test Parameters: male, NOD.Cg-Rag1^tm1Mom Il2rg^tm1Wjl/SzJ (NRG), mouse, tumor/kidney, iv, total radioactivity, 1 h pi, blocked (100 µg blocking agent co-injected); read-out: Tumor/kidney uptake ratio
Result Type: tissue to tissue ratio at 1 h
Lab note: write the figure by itself, no unit.

| Compound | tissue to tissue ratio at 1 h |
| --- | --- |
| CC(C)C[C@@H](CN1CC(F)(F)C[C@H]1C(N)=O)NC(=O)[C@H](Cc1c[nH]cn1)NC(=O)CN(C)C(=O)[C@@H](NC(=O)[C@H](C)NC(=O)[C@H](Cc1c[nH]c2ccccc12)NC(=O)[C@H](CCC(N)=O)NC(=O)[C@@H](Cc1ccccc1)NC(=O)CN1CCC(NC(=O)CN2CCN(CC(=O)O)CCN(CC(=O)O)CCN(CC(=O)O)CC2)CC1)C(C)C [[^68Ga]Ga-LW02080, metal not drawn] | 0.14 |

INPUT: Please look up its tissue to tissue ratio at 1 h: CC(C)C[C@H](NC(=O)[C@H](Cc1cnc[nH]1)N(C)C(=O)CNC(=O)[C@@H](NC(=O)[C@H](C)NC(=O)[C@H](Cc1c[nH]c2ccccc12)NC(=O)[C@H](CCC(N)=O)NC(=O)[C@@H](Cc1ccccc1)NC(=O)CN1CCC(NC(=O)CN2CCN(CC(=O)O)CCN(CC(=O)O)CCN(CC(=O)O)CC2)CC1)C(C)(C)C)C(=O)N1CC(F)(F)C[C@H]1C(N)=O [[^68Ga]Ga-LW02060, metal not drawn]
OUTPUT: 0.54
